Values compiled from patent US20020137929A1.

Below is a list of entries, each paired with its recorded CYPSE herbicidal effect rating value.
System: CYPSE (Flatsedge)
PROTOCOL_DESCRIPTION: Preemergence weed control under flooded paddy conditions
Format: in vivo, Cyperus serotinus
CONDITIONS_USED: 0.1250 kg/ha, rated 3-4 weeks after treatment

>  <COMPOUND>
COC(=O)[C@H](Cc1ccccc1)N1C(=O)CS/C1=N/c1cc(-n2c(=O)cc(C(F)(F)F)n(C)c2=O)c(F)cc1Cl [Compound 72]

>  <CYPSE herbicidal effect rating>
9.0

$$$$
>  <COMPOUND>
CCOC(=O)C(c1ccc(Cl)cc1)N1C(=O)CSC1=Nc1cc(-n2c(=O)cc(C(F)(F)F)n(C)c2=O)c(F)cc1Cl (racemic) [Compound 79]

>  <CYPSE herbicidal effect rating>
0.0

$$$$
>  <COMPOUND>
C=CCN1C(=O)C(CC(=O)OC(C)C(=O)OCC)SC1=Nc1cc(-n2c(=O)ccn(C)c2=O)c(F)cc1Cl (stereo not drawn) [Compound 94]

>  <CYPSE herbicidal effect rating>
6.0

$$$$
>  <COMPOUND>
COC(=O)[C@H](Cc1ccc([N+](=O)[O-])cc1)N1C(=O)CSC1=Nc1cc(-n2c(=O)cc(C(F)(F)F)n(C)c2=O)c(F)cc1Cl [Compound 78]

>  <CYPSE herbicidal effect rating>
7.0

$$$$
>  <COMPOUND>
C=CCN1C(=O)C(CC(=O)NOC)SC1=Nc1cc(-n2c(=O)cc(C(F)(F)F)n(C)c2=O)c(F)cc1Cl (stereo not drawn) [Compound 85]

>  <CYPSE herbicidal effect rating>
2.0

$$$$
>  <COMPOUND>
CCOC(=O)CN1C(=O)C(CC(=O)OC(C)C(=O)OCC)S/C1=N/c1cc(-n2c(=O)cc(C(F)(F)F)n(C)c2=O)c(F)cc1Cl (stereo not drawn) [Compound 87]

>  <CYPSE herbicidal effect rating>
5.0

$$$$
>  <COMPOUND>
C=CCN1C(=O)C(CC(=O)OC(C)C)SC1=Nc1cc(-n2c(=O)cc(C(F)(F)F)n(C)c2=O)c(F)cc1Cl (stereo not drawn) [Compound 66]

>  <CYPSE herbicidal effect rating>
4.0

$$$$
>  <COMPOUND>
C=CCN1C(=O)C(CC(N)=O)SC1=Nc1cc(-n2c(=O)cc(C(F)(F)F)n(C)c2=O)c(F)cc1Cl (stereo not drawn) [Compound 99]

>  <CYPSE herbicidal effect rating>
0.0

$$$$
>  <COMPOUND>
COC(=O)C1(N2C(=O)CSC2=Nc2cc(-n3c(=O)cc(C(F)(F)F)n(C)c3=O)c(F)cc2Cl)CCCCC1 [Compound 81]

>  <CYPSE herbicidal effect rating>
0.0

$$$$
>  <COMPOUND>
COC(=O)CC1SC(=Nc2cc(-n3c(=O)cc(C(F)(F)F)n(C)c3=O)c(F)cc2Cl)N(C)C1=O (stereo not drawn) [Compound 88]

>  <CYPSE herbicidal effect rating>
7.0

$$$$
>  <COMPOUND>
COCCOC(=O)CN1C(=O)CSC1=Nc1cc(-n2c(=O)cc(C(F)(F)F)n(C)c2=O)c(F)cc1Cl [Compound 107]

>  <CYPSE herbicidal effect rating>
0.0

$$$$
>  <COMPOUND>
CCS(=O)(=O)NC(=O)CC1SC(=Nc2cc(-n3c(=O)cc(C(F)(F)F)n(C)c3=O)c(F)cc2Cl)N(C)C1=O (stereo not drawn) [Compound 105]

>  <CYPSE herbicidal effect rating>
7.0

$$$$
